test system: HepG2 cells; assay: Test Example 2: inhibition of apolipoprotein B secretion from HepG2 cells, ELISA (also used for metabolites in Test Example 8); type: cell-based; conditions: Homo sapiens, 24 hours, apo B in supernatant by ELISA, read-out: Test Example 2 Inhibition of apo B secretion IC50
experimental.endpoint: IC50 (nM)
Give bare numbers, in nM.

compound | assay.value
CCNC(=O)C(COC(=O)Cc1ccc(NC(=O)c2ccccc2Oc2ccccc2)c(C(=O)N(C)C)c1)(C(=O)NCC)c1ccccc1 [Example 2-44] | 33
CCNC(=O)C(CCOC(=O)Cc1cccc(NC(=O)c2ccccc2-c2ccc(C(F)(F)F)cc2)c1)(C(=O)NCC)c1ccccc1 [Example 5-4] | 57

Query: // lookup IC50 for CCNC(=O)C(CCOC(=O)Cc1cccc(NC(=O)c2ccccc2-c2ccc(C(F)(F)F)cc2)c1C)(C(=O)NCC)c1ccccc1 [Example 5-9]
Response: 28
